Molecular target: MAGL (recombinant wild-type) (Homo sapiens, UniProt Q99685)
Sequence (Q99685 1-303): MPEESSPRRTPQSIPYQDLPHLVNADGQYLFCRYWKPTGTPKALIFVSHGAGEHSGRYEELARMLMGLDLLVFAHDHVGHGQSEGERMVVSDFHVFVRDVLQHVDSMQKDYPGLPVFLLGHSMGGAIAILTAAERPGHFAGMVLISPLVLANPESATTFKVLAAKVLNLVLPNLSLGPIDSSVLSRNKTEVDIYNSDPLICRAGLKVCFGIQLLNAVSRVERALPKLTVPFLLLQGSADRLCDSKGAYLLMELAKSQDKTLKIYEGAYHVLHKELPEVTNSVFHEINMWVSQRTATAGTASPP
Experiment: 4-NPA assay: MAGL inhibitory activity by hydrolysis of 4-nitrophenylacetate, absorbance at 405 nm
Settings: 4-NPA assay (values without footnote [a])
pIC50: −log10 of the molar value.
property: pIC50

Worked cases, answers included:
{"compound": "O=C1COc2ccc(C(=O)N3CCC(=C(c4ccc(F)cc4)c4ccc(OCCF)cc4)CC3)cc2N1", "measured": 8.46}
{"compound": "O=C1COc2ccc(C(=O)N3CCC(C(c4ccc(F)cc4)c4ccc(OCCOCCF)cc4)CC3)cc2N1 (single isomer, unassigned) [Example 107]", "measured": 9.70}
{"compound": "O=C1COc2ccc(C(=O)N3CCN(C(c4ccccc4)c4ccccc4)CC3)cc2N1", "measured": 8.51}

I: COc1ccc(C(c2ccccc2)C2CN(C(=O)c3ccc4c(c3)NC(=O)CO4)C2)cc1OC (stereo not shown)
II: O=C1COc2ccc(C(=O)N3CCC(C(c4ccccc4)c4ccc(F)nc4)CC3)cc2N1 (single isomer, unassigned) [Example 103]
III: O=C1COc2ccc(C(=O)N3CCC(C(c4ccccc4)c4ccc(OCCOCCF)cc4)CC3)cc2N1 (single isomer, unassigned) [Example 96]
IV: COc1ccc(C(c2ccncc2)C2CCN(C(=O)c3ccc4c(c3)NC(=O)CO4)CC2)cc1OC (single isomer, unassigned) [Example 125]
Prompt: Rank by pIC50 (largest to smallest). List the labels, following the order given in the request.
Completion: III, II, IV, I
(III: 9.70, II: 8.66, IV: 8.11, I: 6.10)

----------
Biological target: MAGL (recombinant wild-type) (Homo sapiens)
Sequence (Q99685 1-303): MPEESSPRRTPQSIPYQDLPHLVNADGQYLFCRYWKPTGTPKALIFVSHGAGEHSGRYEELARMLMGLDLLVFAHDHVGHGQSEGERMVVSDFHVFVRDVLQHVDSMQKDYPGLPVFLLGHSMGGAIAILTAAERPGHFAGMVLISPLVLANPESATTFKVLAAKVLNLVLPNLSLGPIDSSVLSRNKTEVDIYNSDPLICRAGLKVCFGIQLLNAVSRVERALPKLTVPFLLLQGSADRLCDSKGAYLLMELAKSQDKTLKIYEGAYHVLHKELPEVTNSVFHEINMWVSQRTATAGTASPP
Test: 4-NPA assay: MAGL inhibitory activity by hydrolysis of 4-nitrophenylacetate, absorbance at 405 nm
Conditions: 4-NPA assay (values without footnote [a])
property: IC50 (nM)

Worked cases, answers included:
{"compound": "COc1ccc([C@@H](c2ccccc2)C2CCN(C(=O)c3ccc4c(c3)NC(=O)CO4)CC2)cc1OC (single isomer, unassigned) [Example 9]", "u": "nM", "IC50": 0.3}
{"compound": "O=C1COc2ccc(C(=O)N3CCC([C@H](c4ccccc4)c4ccc(F)cc4)CC3)cc2N1 (single isomer, unassigned) [Example 7]", "u": "nM", "IC50": 0.9}

1: COc1cc(OC)cc(N2CCN(C(=O)c3ccc4c(c3)NC(=O)CO4)CC2)c1 [Example 89]
2: O=C1COc2ccc(C(=O)N3CCC(C4(c5ccc(Br)cc5)OCCO4)CC3)cc2N1 [Example 54]
Prompt: Determine, for 1 and 2 , which has the greater value of IC50. The response must carry the label of the picked entry.
Completion: 1
